In this section, each of the sequences is paired with its reported sensor-assay potency score (higher = more potent).
# TARGET_OF_ASSAY: MOV10; also: reference of the scale not given here
# TEST_DESCRIPTION: pooled miR-30 sensor sort-seq; sequence = guide strand
# MEASUREMENT_PARAMETERS: shRNA
Form: value (number only, do not type unit).

{"BIOPOLYMER_SEQUENCE": "TTGAGTTTCACATCTGAGGGCA", "TARGET_OF_ASSAY": "MOV10", "READOUT_VALUE": 0.674}
{"BIOPOLYMER_SEQUENCE": "TTGTACAGGGAGTTGTAGGTGA", "TARGET_OF_ASSAY": "MOV10", "READOUT_VALUE": 0.0022}
{"BIOPOLYMER_SEQUENCE": "AAGCTGATCTTGAAGTCGCGGT", "TARGET_OF_ASSAY": "MOV10", "READOUT_VALUE": 0.0595}
{"BIOPOLYMER_SEQUENCE": "TTCACCTTGAAGGTCAGCCCAT", "TARGET_OF_ASSAY": "MOV10", "READOUT_VALUE": -0.593}
{"BIOPOLYMER_SEQUENCE": "TTAATTGCCTCCACTAACGTGA", "TARGET_OF_ASSAY": "MOV10", "READOUT_VALUE": 0.283}
{"BIOPOLYMER_SEQUENCE": "TATTCCTGCAGCTTCTTCTTGG", "TARGET_OF_ASSAY": "MOV10", "READOUT_VALUE": 0.321}

Qu. Report sensor-assay potency score (higher = more potent) for TAACGTGACAGTCTTGCCGGTG
Ans. -0.472

Qu. Report sensor-assay potency score (higher = more potent) for TTGAAGGTAAAGTTCACCTTGA
Ans. 0.564
